Biological target: CBL-B (Homo sapiens, UniProt Q13191)
Construct: GST
Sequence (Q13191 whole entry): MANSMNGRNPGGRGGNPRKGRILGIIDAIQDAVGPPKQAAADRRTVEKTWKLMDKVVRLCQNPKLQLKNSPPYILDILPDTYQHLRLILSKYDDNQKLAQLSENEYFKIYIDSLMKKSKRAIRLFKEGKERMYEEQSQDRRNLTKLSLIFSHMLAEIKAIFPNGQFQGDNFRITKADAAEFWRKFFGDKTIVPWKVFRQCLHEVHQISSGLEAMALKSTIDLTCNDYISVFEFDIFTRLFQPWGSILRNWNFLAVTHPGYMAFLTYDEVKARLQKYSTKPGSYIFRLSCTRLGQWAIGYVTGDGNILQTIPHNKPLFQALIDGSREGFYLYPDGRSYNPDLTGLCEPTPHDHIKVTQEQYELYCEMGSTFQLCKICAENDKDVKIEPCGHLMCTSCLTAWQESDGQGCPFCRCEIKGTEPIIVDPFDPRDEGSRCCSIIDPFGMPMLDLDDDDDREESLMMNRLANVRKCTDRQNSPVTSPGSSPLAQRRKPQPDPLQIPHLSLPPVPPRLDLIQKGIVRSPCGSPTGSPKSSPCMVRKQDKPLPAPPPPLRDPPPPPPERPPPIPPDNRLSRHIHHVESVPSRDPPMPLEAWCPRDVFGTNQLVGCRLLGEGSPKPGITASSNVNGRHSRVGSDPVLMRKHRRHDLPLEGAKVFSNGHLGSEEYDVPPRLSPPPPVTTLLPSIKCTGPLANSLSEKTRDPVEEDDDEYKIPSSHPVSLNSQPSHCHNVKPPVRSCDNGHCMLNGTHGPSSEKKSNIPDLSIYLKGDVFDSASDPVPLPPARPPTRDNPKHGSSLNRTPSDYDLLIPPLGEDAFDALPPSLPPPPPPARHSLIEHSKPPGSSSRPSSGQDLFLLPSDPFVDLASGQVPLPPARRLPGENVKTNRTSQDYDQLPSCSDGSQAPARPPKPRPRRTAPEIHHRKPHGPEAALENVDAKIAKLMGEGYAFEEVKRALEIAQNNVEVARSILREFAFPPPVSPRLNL
Assay: CBL-B TR-FRET IC50 screening (E1/E2 ubiquitination, Biotin-Ubiquitin, Anti GST-Tb donor / Streptavidin-d2 acceptor)
Assay type: biochemical
Conditions: CBL-B 10 nM final; 11-point titration from 100 uM; binned A-F; read-out: CBL-B TR-FRET activity IC50
quantity-name: IC50

CBL-B (Homo sapiens, UniProt Q13191) assay, molecule CN1CC=C(c2cc(C(F)(F)F)c3cn(-c4cccc(C5(Cc6nncn6C)COC5)c4)c(=O)n3c2)CC1 , recorded IC50 = 1000 to 3000 nM

Sample CC(c1cc(C(F)(F)F)c2cn(-c3cccc([C@H](c4nncn4C)C4CCC4)c3)c(=O)n2c1)N1CCC[C@H](C)C1 (single isomer, unassigned) [Compound 193] , system: CBL-B (Homo sapiens, UniProt Q13191). Its IC50 is < 100 nM

Measured IC50 (CBL-B (Homo sapiens, UniProt Q13191)), entry C[C@H]1CCCN(Cc2cc(C(F)(F)F)c3cn(-c4cccc(C5(Cc6nncn6C)COC5)c4)c(=O)n3c2)C1 : < 100 nM

Observed IC50, CBL-B (Homo sapiens, UniProt Q13191), C[C@@H]1CCCCN1Cc1cc(C(F)(F)F)c2cn(-c3cccc([C@@H](c4nncn4C)C4CCC4)c3)c(=O)n2c1 : > 10000 nM

Note to self: IC50 of C[C@@H]1CCCCN(Cc2cc(C(F)(F)F)c3cn(-c4cccc([C@H](c5nncn5C)C5CCC5)c4)c(=O)n3c2)C1 (single isomer, unassigned) with CBL-B (Homo sapiens, UniProt Q13191) was < 100 nM

Record Cc1c[nH]nc1CC1(c2cccc(-n3cc4c(C(F)(F)F)cc(CN5CCC[C@H](C)C5)cn4c3=O)c2)COC1 / CBL-B (Homo sapiens, UniProt Q13191), IC50 recorded as < 100 nM

Sample C[C@H]1CCCN(Cc2cc(C(F)(F)F)c3cn(-c4cccc([C@H](c5nncn5C)C5COC5)c4)c(=O)n3c2)C1 , system: CBL-B (Homo sapiens, UniProt Q13191). Its IC50 is < 100 nM

Form field, IC50 with CBL-B (Homo sapiens, UniProt Q13191), item Cn1cnnc1[C@@H](c1cccc(-n2cc3c(C(F)(F)F)cc(CN4CC(F)C4)cn3c2=O)c1)C1CCC1 : < 100 nM

Value sought: IC50, system CBL-B (Homo sapiens, UniProt Q13191), item CC(=O)N(c1cccc(-n2cc3c(C(F)(F)F)cccn3c2=O)c1)c1nncn1C . Result: > 10000 nM

Tested on CBL-B (Homo sapiens, UniProt Q13191): Cn1cnnc1[C@H](c1cccc(-n2cc3c(C(F)(F)F)cc(CN4CC5(CC5)C4)cn3c2=O)c1)C1CCC1 (single isomer, unassigned) . Observed IC50: 3000 to 10000 nM

Record for Cn1cnnc1C1(c2cccc(-n3cc4c(C(F)(F)F)cc(CN5CC6(CC6)C5)cn4c3=O)c2)CC2(CC2)C1 under target or system CBL-B (Homo sapiens, UniProt Q13191): IC50 reported as < 100 nM

C[C@H]1CCCN(Cc2cc(C(F)(F)F)c3cn(-c4cccc(N(c5nncn5C)C5COC5)c4)c(=O)n3c2)C1 tested on CBL-B (Homo sapiens, UniProt Q13191) gave IC50: < 100 nM

Record for O=c1n(-c2cccc(C3(Cc4nnco4)COC3)c2)cc2c(C(F)(F)F)cccn12 under target or system CBL-B (Homo sapiens, UniProt Q13191): IC50 reported as > 10000 nM

---

Molecular target: CBL-B (Homo sapiens)
Construct: GST
Assay: CBL-B TR-FRET IC50 screening (E1/E2 ubiquitination, Biotin-Ubiquitin, Anti GST-Tb donor / Streptavidin-d2 acceptor)
Format: biochemical
Conditions: second part of Table 2 (head 'Patent Cmpd No / Updated Activity'); same CBL-B TR-FRET IC50 bins A-F; read-out: Updated Activity
pIC50: −log10 of the molar value.
Would you kindly list pIC50 for each of these compounds?

// assay CBL-B (Homo sapiens), entry Cn1cnnc1[C@@H](c1cccc(-n2cc3c(C(F)(F)F)cc(CN4CCC[C@@](C)(O)C4)cn3c2=O)c1)C1CCC1 (single isomer, unassigned) [Compound 569] , pIC50 value = > 7.00

pIC50 of Cn1cnnc1[C@@H](c1cccc(-n2cc3c(C(F)(F)F)cc(CN4CCC5(CC4)COC5)cn3c2=O)c1)C1CCC1 [Compound 525] , assay on CBL-B (Homo sapiens), is > 7.00

Form field pIC50 for item Cn1cnnc1[C@@H](c1cccc(-n2cc3c(C(F)(F)F)cc(CN4CCC5(CCNC5=O)CC4)cn3c2=O)c1)C1CCC1 [Compound 609] on CBL-B (Homo sapiens): > 7.00

---

Kindly state IC50 for each of the entries shown.
Molecular target: CBL-B (Homo sapiens)
Construct: GST
Assay: CBL-B TR-FRET IC50 screening (E1/E2 ubiquitination, Biotin-Ubiquitin, Anti GST-Tb donor / Streptavidin-d2 acceptor)
Format: biochemical
Conditions: second part of Table 2 (head 'Patent Cmpd No / Updated Activity'); same CBL-B TR-FRET IC50 bins A-F; read-out: Updated Activity

GET /value?item= Cn1cnnc1[C@H](c1cc(-c2cnoc2)cc(-n2cc3c(C(F)(F)F)cccn3c2=O)c1)C1CCC1 (single isomer, unassigned) [Compound 454] &field=IC50 returns 1000 to 3000 nM

IC50 measured on C[C@H]1CCCN(Cc2cc(C(F)(F)F)c3cn(-c4cccc([C@@H](c5nncn5C)C5CN(C)C5)c4)c(=O)n3c2)C1 [Compound 470_P2] = > 10000 nM

In plain terms, CN1CCCN(Cc2cc(C(F)(F)F)c3cn(-c4cccc([C@H](c5nncn5C)C5CCC5)c4)c(=O)n3c2)S1(=O)=O [Compound 562] has a documented IC50 of < 100 nM

// IC50 value for C[C@H]1CCCN(Cc2cc(C(F)(F)F)c3cn(-c4cc(C#N)cc([C@H](c5nncn5C)C5COC5)c4)c(=O)n3c2)C1 (single isomer, unassigned) [Compound 555] : > 10000 nM

C[C@H]1CCCN(Cc2cc(C(F)(F)F)c3cn(-c4cc(C#N)cc([C@@H](c5nncn5C)C5COC5)c4)c(=O)n3c2)C1 (single isomer, unassigned) [Compound 556] has a reported IC50 of < 100 nM

response.value for CC(C)n1cnnc1[C@H](c1cccc(-n2cc3c(C(F)(F)F)cc(CN4CCC[C@H](C)C4)cn3c2=O)c1)C1CCC1 (single isomer, unassigned) [Compound 428] (field: IC50) = > 10000 nM

Consider CN(C)C(=O)N(C)Cc1cc(C(F)(F)F)c2cn(-c3cccc([C@H](c4nncn4C)C4CCC4)c3)c(=O)n2c1 [Compound 484] . Its measured IC50 is < 100 nM

---

Molecular target: CBL-B (Homo sapiens, UniProt Q13191)
Construct: GST
Test: CBL-B TR-FRET IC50 screening (E1/E2 ubiquitination, Biotin-Ubiquitin, Anti GST-Tb donor / Streptavidin-d2 acceptor)
Format: biochemical
Conditions: CBL-B 10 nM final; 11-point titration from 100 uM; binned A-F; read-out: CBL-B TR-FRET activity IC50
pIC50: −log10 of the molar value.
quantity-name: pIC50

So, Cn1cnnc1[C@@H](c1cccc(-n2cc3c(C(F)(F)F)cc(CN4CCn5cnnc5C4)cn3c2=O)c1)C1CCC1 [Compound 316] ? Its pIC50 was > 7.00

Summary for this compound, CN1CC2CCC(C1)N2c1cc(C(F)(F)F)c2cn(-c3cccc([C@H](c4nncn4C)C4CCC4)c3)c(=O)n2c1 [Compound 373] : pIC50 is 6.52 to 7.00

pIC50 for Cn1cnnc1C[C@@H]1CCc2c1cccc2-n1cc2c(C(F)(F)F)cccn2c1=O [Compound 17] is < 5.00

So for C[C@@H]1CN([C@@H](C)c2cc(C(F)(F)F)c3cn(-c4cccc([C@H](c5nncn5C)C5CCC5)c4)c(=O)n3c2)CCO1 (single isomer, unassigned) [Compound 234] , the logged pIC50 turned out to be > 7.00

Lab note: C[C@H]1CCCN(Cc2cc(C(F)(F)F)c3cn(-c4cccc([C@H](c5nncn5C)[C@H]5C[C@@H](CO)C5)c4)c(=O)n3c2)C1 (single isomer, unassigned) [Compound 356] gave pIC50 of > 7.00

Query Cn1cnnc1CC1(c2cccc(-n3cc4c(C(F)(F)F)cc(COCCO)cn4c3=O)c2)COC1 [Compound 90] yields pIC50 of 6.52 to 7.00

Recorded result, Cn1cnnc1CC1(c2cccc(-n3cc4c(C(F)(F)F)cccn4c3=O)c2)CNC1 [Compound 144] , pIC50: < 5.00

What the record says about Cn1cnnc1[C@@H](c1cccc(-n2cc3c(C(F)(F)F)cc(CN4CC5(CC5)C4)cn3c2=O)c1)C1CCC1 (single isomer, unassigned) [Compound 165] : pIC50 is > 7.00

The recorded pIC50 for CC1CN(Cc2cc(C(F)(F)F)c3cn(-c4cccc([C@@H](c5nncn5C)C5CCC5)c4)c(=O)n3c2)CCC1(F)F (single isomer, unassigned) [Compound 169] is 5.00 to 5.52

C[C@H]1CCCN(Cc2cc(C(F)(F)F)c3cn(-c4cccc([C@]5(c6nncn6C)C[C@@H](O)C5)c4)c(=O)n3c2)C1 [Compound 255] has a reported pIC50 of > 7.00

pIC50 reported for this compound Cn1cnnc1CC1(c2cccc(-n3cc4c(C(F)(F)F)cc(CN5CC6CC6C5)cn4c3=O)c2)COC1 (centres unmarked) [Compound 25] : > 7.00
